# assay-comment: Intrinsic clearance in human liver microsomes at 1 uM incubated for 60 mins in presence of NADPH by LC-MS/MS method
# Assay type: ADME
# condition: read-out: CLH
reported-property: CLint scaled at 1 µM (mL/min/kg)

Worked cases, CLint scaled at 1 µM given:
Request: Item "Cc1cc(-c2ccc(SCC(=O)Nc3ccc(-c4cnccn4)cn3)cc2)ccn1" has what recorded CLint scaled at 1 µM?
Response: 263

Request: Could you share which CLint scaled at 1 µM value was measured for "Cc1cc(-c2ccc(CCC(=O)Nc3ccc(-c4cnccn4)cn3)cc2)ccn1" ?
Response: 84

Request: Entry Cc1cc(-c2ccc(OC(C)C(=O)Nc3ccc(-c4cnccn4)cn3)cc2)ccn1 (stereo not given) has what CLint scaled at 1 µM?
Response: 43

a = Cc1cc(-c2ccc(NCC(=O)Nc3ccc(-c4cnccn4)cn3)cc2)ccn1
b = Cc1cc(-c2ccc(OCC(=O)Nc3ccc(-c4cnccn4)cn3)cc2)ccn1
Request: Of a and b , whose reported CLint scaled at 1 µM is the larger number? Output the label that corresponds to your choice.
Response: b
(b: 135 mL/min/kg, a: 45 mL/min/kg)
